Answer each item with its documented inhibition at 25 µM.
Molecular target: HSF1 (Homo sapiens)
Construct: functionally linked to an hsp70b promoter and therefore controlled by endogenous HSF1; endogenous in cells; host or cells: HeLa cells / HeLa-derived cell line Z74
Sequence (Q00613 1-529): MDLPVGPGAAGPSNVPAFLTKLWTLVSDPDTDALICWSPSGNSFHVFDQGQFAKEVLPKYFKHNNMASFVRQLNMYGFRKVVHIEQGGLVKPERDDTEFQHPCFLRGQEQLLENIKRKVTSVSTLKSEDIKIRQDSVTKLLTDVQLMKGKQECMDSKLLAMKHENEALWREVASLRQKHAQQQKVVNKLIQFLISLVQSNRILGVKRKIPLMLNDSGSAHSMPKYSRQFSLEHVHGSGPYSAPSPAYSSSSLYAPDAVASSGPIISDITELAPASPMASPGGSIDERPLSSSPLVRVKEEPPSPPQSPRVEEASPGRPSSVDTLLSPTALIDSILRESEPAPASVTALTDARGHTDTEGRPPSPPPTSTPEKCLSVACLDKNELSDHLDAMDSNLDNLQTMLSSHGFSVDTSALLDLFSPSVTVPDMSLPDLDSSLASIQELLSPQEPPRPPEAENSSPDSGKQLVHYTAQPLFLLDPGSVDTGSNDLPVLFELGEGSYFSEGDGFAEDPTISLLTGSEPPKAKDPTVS
Assay: Z74 cell-based reporter assay: heat-induced RLuc expression controlled by endogenous HSF1
Settings: Z74 cells; 25 μM IHSF; 2 h exposure, 43° C. 30 min, 6 h at 37° C.; read-out: Inhibition of HSF1 activity at 25 μM IHSF [RLuc] (%)

Query :: Reported inhibition at 25 µM, compound CCOC(=O)/C=C/C(=O)Nc1ccnc(-c2ccccc2C)c1 : ____
Result :: 79%

Query :: Reported inhibition at 25 µM, compound CC(C)NC(=O)/C=C/C(=O)Nc1nccs1 : ____
Result :: 24%

Query :: Reported inhibition at 25 µM, compound CCOC(=O)/C=C/C(=O)Nc1nc(C)c(C)s1 : ____
Result :: 71%

Query :: Reported inhibition at 25 µM, compound CCOC(=O)/C=C/C(=O)N(CCc1ccncc1)c1nccs1 : ____
Result :: 95%

Query :: Reported inhibition at 25 µM, compound CCOC(=O)/C=C/C(=O)Nc1ccn(C)n1 : ____
Result :: 25%

Query :: Reported inhibition at 25 µM, compound CC(C)OC(=O)/C=C/C(=O)Nc1nccs1 : ____
Result :: 41%

----------
target: HSF1 (Homo sapiens); construct: functionally linked to an hsp70b promoter and therefore controlled by endogenous HSF1; endogenous in cells; host or cells: HeLa cells / HeLa-derived cell line Z74; test: Z74 cell-based reporter assay: heat-induced RLuc expression controlled by endogenous HSF1; details: Z74 cells; 25 μM IHSF; 2 h exposure, 43° C. 30 min, 6 h at 37° C.; read-out: Inhibition of HSF1 activity at 25 μM IHSF [RLuc] (%)
Answer each item with its documented inhibition at 25 µM.
Your answer is read as %, so omit the unit and give the number.

Query :: Reported inhibition at 25 µM, compound CCOC(=O)/C=C/C(=O)Nc1nc(C(N)=O)c(-c2ccccc2)s1 : ____
Result :: 88

Query :: Reported inhibition at 25 µM, compound O=C(/C=C/c1ncno1)Nc1nccs1 : ____
Result :: 61

Query :: Reported inhibition at 25 µM, compound CCOC(=O)/C=C/C(=O)Nc1ccncc1C : ____
Result :: 34

Query :: Reported inhibition at 25 µM, compound CCOC(=O)/C=C/C(=O)Nc1ccnc(-c2cccc(C)c2)c1 : ____
Result :: 71
